Biological target: T1, GRIP1_5, Q9Y3R0
T1 sequence (Q9Y3R0 568-668, limits assumed, looked up): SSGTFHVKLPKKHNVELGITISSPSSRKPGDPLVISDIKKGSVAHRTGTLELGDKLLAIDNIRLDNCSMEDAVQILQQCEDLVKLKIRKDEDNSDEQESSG
Assay: holdup assay
Set-up: key: below the threshold = too weak to quantify, mostly under pKd 3.1 to 4
Settings: plain residues with an end cap or a label only (N-terminal biotin on a linker: ado-ado)
Experimental endpoint: pKd

The examples below pair each entry with its known result.
1. DYSNLRETDI [ADRA1D, P25100] | below the threshold
2. LLQEEWETVM [PTH1R, Q03431] | below the threshold
3. NISARRFTLC [FAM167B, Q9BTA0] | below the threshold
4. PDSYHRRDFW [U2AF2, P26368] | below the threshold

Proceed to the following item.
Incoming: Give its pKd value. Item: GTMFLRETSL [GUCY1A2, P33402]
Outgoing: below the threshold

meta.source: paper PMC9482650
